target: Kv1.6 (Homo sapiens, UniProt P17658)
Construct: expressed in transfected cells
Sequence (P17658 whole entry): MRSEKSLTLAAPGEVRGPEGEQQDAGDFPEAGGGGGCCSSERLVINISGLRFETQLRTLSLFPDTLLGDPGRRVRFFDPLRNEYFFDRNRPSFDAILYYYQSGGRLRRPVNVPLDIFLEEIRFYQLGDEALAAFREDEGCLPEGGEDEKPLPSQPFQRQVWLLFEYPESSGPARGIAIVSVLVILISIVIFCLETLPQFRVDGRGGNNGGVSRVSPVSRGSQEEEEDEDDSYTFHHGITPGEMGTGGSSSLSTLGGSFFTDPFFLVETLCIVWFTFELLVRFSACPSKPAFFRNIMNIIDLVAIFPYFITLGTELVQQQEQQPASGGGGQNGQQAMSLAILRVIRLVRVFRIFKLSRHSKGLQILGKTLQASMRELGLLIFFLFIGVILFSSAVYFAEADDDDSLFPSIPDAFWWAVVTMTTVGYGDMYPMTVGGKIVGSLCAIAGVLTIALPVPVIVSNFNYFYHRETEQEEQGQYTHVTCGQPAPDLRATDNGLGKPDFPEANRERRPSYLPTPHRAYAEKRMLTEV
assayExplanation: Patch clamp assay (QPatch), Kv1.6
Format: cell-based
testSettings: ratio of IC50 Kv1.6/Kv1.3
Listing of entries alongside the reported Selectivity Kv1.6/Kv1.3.
Form field (numeric): enter value without unit.

Below are worked cases with known answers.
H-[phosphotyrosyl][8-Amino-3,6-dioxaoctanoyl]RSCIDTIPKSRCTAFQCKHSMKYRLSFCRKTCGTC-NH2 [ShK-186, reference compound]	7.4
H-NMDMRC(1)SASVEC(2)KVKC(3)LKAIGSIFGKC(1)MNKKC(2)KC(3)YPR-NH2 [Peptide 18]	2182

Here is the next item to consider.
Exercise: Could you please provide reported Selectivity Kv1.6/Kv1.3 for H-NMDMRC(1)KASVEC(2)KQKC(3)LKAIGSIFGKC(1)MNKKC(2)KC(3)YPR-NH2 [Peptide 26] ? Thanks!
Solution: 4144

----------
target: Kv1.6 (Homo sapiens, UniProt P17658)
Construct: expressed in transfected cells
assayExplanation: Patch clamp assay (QPatch), Kv1.6
Assay type: cell-based
testSettings: QPatch; CHO cells stably expressing human Kv1.6; read-out: Potency IC50, Kv1.6
pIC50: −log10 of the molar value.
measurementLabel: pIC50

Exercise: Could you please provide reported pIC50 for H-NMDMRC(1)SASVEC(2)LQKC(3)LKAIGSIFGKC(1)MNKKC(2)KC(3)YPR-NH2 [Peptide 30] ? Thanks!
Solution: < 5.52

Exercise: Could you please provide reported pIC50 for H-[Nle]D[Nle]RC(1)SASVEC(2)KQKC(3)LKAIGSIFGKC(1)[Nle]NKKC(2)KC(3)YPR-OH [Peptide 97] ? Thanks!
Solution: < 5.52

Exercise: Could you please provide reported pIC50 for H-P[Nle]E[Nle]RC(1)SASVEC(2)AQKC(3)LAAIGSIFGKC(1)[Nle]NKKC(2)KC(3)YPR-OH [Peptide 107] ? Thanks!
Solution: < 5.52

----------
target: Kv1.2 (Homo sapiens)
Construct: expressed in transfected cells
Sequence (P16389 whole entry): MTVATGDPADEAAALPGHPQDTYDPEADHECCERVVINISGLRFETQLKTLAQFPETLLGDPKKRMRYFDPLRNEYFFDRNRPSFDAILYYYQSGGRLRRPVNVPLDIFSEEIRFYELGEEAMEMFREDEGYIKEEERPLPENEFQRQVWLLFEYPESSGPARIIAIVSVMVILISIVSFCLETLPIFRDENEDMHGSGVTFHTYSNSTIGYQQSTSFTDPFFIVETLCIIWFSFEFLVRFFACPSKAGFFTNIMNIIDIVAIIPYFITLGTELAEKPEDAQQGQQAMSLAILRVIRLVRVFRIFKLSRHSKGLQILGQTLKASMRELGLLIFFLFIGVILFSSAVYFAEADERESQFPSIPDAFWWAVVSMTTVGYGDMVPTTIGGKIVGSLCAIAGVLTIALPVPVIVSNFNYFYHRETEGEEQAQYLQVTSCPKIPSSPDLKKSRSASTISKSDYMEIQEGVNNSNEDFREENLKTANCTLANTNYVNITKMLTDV
assayExplanation: Patch clamp assay (QPatch), Kv1.2
Format: cell-based
testSettings: ratio of IC50 Kv1.2/Kv1.3
measurementLabel: Selectivity Kv1.2/Kv1.3
Form field (numeric): enter value without unit.

H-NMDMRC(1)SASVEC(2)LQKC(3)LKAIGSIFGKC(1)MNKKC(2)KC(3)YPR-NH2 [Peptide 30]	2163
H-N[Nle]D[Nle]RC(1)RASVEC(2)KQKC(3)LKAIGSIFGKC(1)[Nle]NKKC(2)KC(3)YPR-NH2 [Peptide 43]	674
H-P[Nle]E[Nle]RC(1)[2,4-Diaminobutanoyl]ASVEC(2)KQKC(3)LAAIGSIFGKC(1)[Nle]NKKC(2)KC(3)YPR-OH [Peptide 84]	17000
H-NMDMRC(1)SASVEC(2)KEKC(3)LKAIGSIFGKC(1)MNKKC(2)KC(3)YPR-NH2 [Peptide 32]	648

Exercise: Could you please provide reported Selectivity Kv1.2/Kv1.3 for H-P[Nle]D[Nle]RC(1)SASVEC(2)KQKC(3)LKAIGSIFGKC(1)[Nle]NKKC(2)KC(3)YPR-NH2 [Peptide 42] ? Thanks!
Solution: 5362

Exercise: Could you please provide reported Selectivity Kv1.2/Kv1.3 for H-NMDMRC(1)SASVEC(2)KQKC(3)LKAIGSIFGKC(1)MNKKC(2)HC(3)YPR-NH2 [Peptide 38] ? Thanks!
Solution: 1816

Exercise: Could you please provide reported Selectivity Kv1.2/Kv1.3 for H-P[Nle]E[Nle]RC(1)SASVEC(2)KQKC(3)LAAIGSIFGKC(1)[Nle]NKKC(2)KC(3)YPR-NH2 [Peptide 101] ? Thanks!
Solution: 1689

Exercise: Could you please provide reported Selectivity Kv1.2/Kv1.3 for H-NMDMRC(1)SASVEC(2)KQKC(3)LYAIGSIFGKC(1)MNKKC(2)KC(3)YPR-NH2 [Peptide 54] ? Thanks!
Solution: 514

Exercise: Could you please provide reported Selectivity Kv1.2/Kv1.3 for H-NID[Nle]RC(1)SASVEC(2)KQKC(3)LKAIGSIFGKC(1)[Nle]NKKC(2)KC(3)YPR-OH [Peptide 98] ? Thanks!
Solution: 7756

Exercise: Could you please provide reported Selectivity Kv1.2/Kv1.3 for H-RC(1)SASVEC(2)KQKC(3)LKAIGSIFGKC(1)[Nle]NKKC(2)KC(3)YPR-NH2 [Peptide 111] ? Thanks!
Solution: 708

Exercise: Could you please provide reported Selectivity Kv1.2/Kv1.3 for H-NMDMRC(1)SASVEC(2)KQLC(3)LKAIGSIFGKC(1)MNKKC(2)KC(3)YPR-NH2 [Peptide 19] ? Thanks!
Solution: 1080

Exercise: Could you please provide reported Selectivity Kv1.2/Kv1.3 for H-N[Nle]D[Nle]RC(1)SASVEC(2)KQKC(3)KAIGSIFGKC(1)[Nle]NKKC(2)KC(3)YPR-NH2 [Peptide 50] ? Thanks!
Solution: 123

Exercise: Could you please provide reported Selectivity Kv1.2/Kv1.3 for H-S[Nle]D[Nle]RC(1)SASVEC(2)GQKC(3)LKAIGSIFGKC(1)MNKKC(2)KC(3)YPR-NH2 [Peptide 73] ? Thanks!
Solution: 3438

The origin of these recorded values is patent US20260325605A1.
